Where do these numbers come from? They come from patent US20170313750A1.

# targetOrTestSystem: T1, human Y5 receptor (Q15761, NPY5R_HUMAN, Uniprot) (human, UniProt Q15761 1-445)
# T1 construct: whole, on cells; Assayed as membrane preparations of the expressing cells
# T1 sequence (looked up): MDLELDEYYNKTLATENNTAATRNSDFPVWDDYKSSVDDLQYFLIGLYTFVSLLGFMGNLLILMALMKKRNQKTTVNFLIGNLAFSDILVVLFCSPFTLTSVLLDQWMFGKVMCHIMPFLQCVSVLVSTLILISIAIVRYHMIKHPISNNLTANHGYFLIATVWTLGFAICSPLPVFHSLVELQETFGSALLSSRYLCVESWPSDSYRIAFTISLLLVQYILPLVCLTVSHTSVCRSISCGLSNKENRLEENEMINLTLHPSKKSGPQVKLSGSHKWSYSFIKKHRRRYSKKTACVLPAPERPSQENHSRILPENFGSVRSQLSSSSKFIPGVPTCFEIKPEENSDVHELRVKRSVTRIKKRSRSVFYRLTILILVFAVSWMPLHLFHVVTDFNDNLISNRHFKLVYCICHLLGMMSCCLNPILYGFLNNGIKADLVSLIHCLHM
# protocolDescription: SPA vs [125I]-PYY(1-36)
Numbered stars: 1 amine (or outer) side, 2 acyl side, 3 side chain; on linkers, the order of the positions; unused ones are H or OH. Side chains are listed from the residue outwards. * marks the point of attachment. C18 diacid = O=C(O)CCCCCCCCCCCCCCCCC(=O)*; γGlu = O=C(O)[C@H](CCC(=O)[*:2])N[*:1]; Isovaleryl = CC(C)CC(=O)*; AEEA = NCCOCCOCC(=O)O
# Ki per entry
Could you give me the number in nM? Just the number is fine.

Here are 3 binders together with their reported answers.
[[record]]
binder = "Isovaleryl-RPEAPPK([γGlu-AEEA-γGlu-C18 diacid])DASPEELQRYYESLRHYYNWLTRQRY-NH2 (also called Compound 54; 54)"
readoutvalue = 254

[[record]]
binder = "Isovaleryl-RPEK([γGlu-C18 diacid])PTEDASPEELQRYYQSLRHYYNWLTRQRY-NH2 (also called Compound 43)"
readoutvalue = 509

[[record]]
binder = "Isovaleryl-RPEAPGK([AEEA-AEEA-γGlu-C18 diacid])DASPEELQRYYAELRHYYNWLTRQRY-NH2 (also called Compound 52; 52)"
readoutvalue = 182


// moving on: another record for Ki
Query :: Looking for the measured Ki of Isovaleryl-RPEAPGK([γGlu-AEEA-γGlu-C18 diacid])DASPEELQRYYASLRHYYNWLTRQRY-NH2 (also called Compound 59; 59) , can you help?
Result :: 279
